target: Proteasome subunit beta (Trypanosoma cruzi); assay: Trypanosoma cruzi proteasome chymotrypsin-like activity (TcProtChymo) assay.; type: functional; parameters: scale not given: in the data most compounds retested in dose-response had high values; details: 9.37 µM
This listing pairs compounds with measured Percent Effect.
property.measured: Percent Effect (%)

> print(dat)
                                    compound  property.measured  recorded.result
 1  CC(NC(=O)Nc1cc(F)ccc1N1CCCCC1)c1nncn1C (configuration not stated)     Percent Effect            -3.78
 2  COc1cc(C(=O)NS(=O)(=O)c2cccc(C#N)c2)ccc1C     Percent Effect             2.33
 3  CC(CN1CCOCC1)NCc1nncn1C1CCCCC1 (configuration not stated)     Percent Effect             9.65
 4   Clc1ccccc1C1(c2ccnc(-c3ncccn3)n2)CCNCC1     Percent Effect             7.49
 5  CC(C)n1ccc(-c2cc(C(=O)N3CCCC3)c3ccccn23)n1     Percent Effect             3.69
 6  Cc1nn(C)c(C)c1C1CCCN1C(=O)c1cc[nH]n1 (configuration not stated)     Percent Effect             5.49
 7  CC(Cn1cccn1)NC(=O)Nc1nnc(C2CC2)s1 (configuration not stated)     Percent Effect           -0.845
 8    CCOc1ccc(-n2nnc(C(=O)O)c2-c2ccncc2)cc1     Percent Effect             9.11
 9  Clc1ccc2cccnc2c1CN1CCCC(Cn2cncn2)C1 (configuration not stated)     Percent Effect               12
10   Cn1ccc(-c2cc(C(=O)N3CCOCC3)c3ccccn23)n1     Percent Effect             12.7
11    Cc1nc(N2CCCC2)nc2c1CCN(C(=O)CC1CC1)CC2     Percent Effect             16.1
12  CN(C)C(=O)C1CN(Cc2c[nH]cn2)CCN(C2CCOCC2)C1 (configuration not stated)     Percent Effect             6.24
13  CC1=NN(c2ccc(C(=O)N3CCCC(n4ccnc4)C3)cc2)CC1 (configuration not stated)     Percent Effect            -1.06
14  O=C(C1CCC1)N1CCN(Cc2ccsc2)[C@H]2CS(=O)(=O)C[C@H]21     Percent Effect             15.8
15  CC(C(=O)N1CCN(c2cnccn2)CC1)n1cncn1 (configuration not stated)     Percent Effect             8.23
16      CCc1ccc(CN(CCCn2ccnc2)Cc2ccc(C)s2)o1     Percent Effect             9.36
17  Cc1cc(C)n(CC2CCCN2C(=O)c2ccc3c(c2)OCO3)n1 (configuration not stated)     Percent Effect             8.75
18  Cc1nc(C2CCCN(C(=O)C(C)(C)n3cc(Cl)cn3)C2)no1 (configuration not stated)     Percent Effect            0.343
19     CCc1ncc(C(=O)NCCNC(=O)Cc2ccc(F)cc2)s1     Percent Effect             11.3
20  O=C(NCCN1CCCCCC1=O)c1n[nH]c(=O)c2ccccc12     Percent Effect             6.42
21        O=C(CC1CCCC1)NCCn1ccc(-c2ccncc2)n1     Percent Effect             1.92
22     NC(=O)C1CCN(Cn2nc(-c3ccccc3)oc2=O)CC1     Percent Effect             20.3
23  CC(C)(C)c1nc(CN2CCCC(Cn3cncn3)C2)cs1 (configuration not stated)     Percent Effect             10.6
24          O=C(NCc1ccc(-n2cncn2)nc1)c1ccoc1     Percent Effect            0.901
25         COc1ccc(NC(=O)CNc2ccc(Br)cc2F)cc1     Percent Effect             17.7
26    Cc1ccccc1C(=O)Nc1cnn(CC(=O)NC2CCCC2)c1     Percent Effect             20.5
27           COCCC(=O)N1CCc2cc(Cl)cc(Cl)c2C1     Percent Effect               14
28  Cn1cc(C2CCCN2CCCc2nc(-c3cccs3)no2)cn1 (configuration not stated)     Percent Effect             7.03
29  COc1c(CNCC(O)c2cccc(F)c2)c(C(C)C)nn1C (configuration not stated)     Percent Effect             18.7
30  N#Cc1cccc(S(=O)(=O)N2CCCCC2CCN2CCCC2=O)c1 (configuration not stated)     Percent Effect             8.99
31  Cc1cc(C2CCCN(CCc3ccccn3)C2)n[nH]1 (configuration not stated)     Percent Effect            -1.23
32  CNC(=O)C(C)(C)NC(=O)c1cc(OCC2CCC2)cc(C(=O)OC)c1     Percent Effect             12.6
33  Cc1c[nH]cc1C(=O)N1CCN(Cc2nc(C(C)C)no2)CC1     Percent Effect            -3.05
34      c1cncc(OCc2nnn3c2CN(Cc2ccsc2)CCC3)c1     Percent Effect             6.84
35  CNc1nc2c(c(C(=O)N3CCCC3)n1)CN(Cc1nccn1C)CC2     Percent Effect             19.4
36  CN1C(=O)C(c2ccccc2)CC12CCN(CCOCCO)CC2 (configuration not stated)     Percent Effect             19.2
37  O=C(COc1ccc2c(c1)CCC2)N1CCOCC1c1ncon1 (configuration not stated)     Percent Effect            -1.62
38  CCOC(=O)c1c(NC(=O)CN2CCN(C(C)=O)CC2)sc2c1CCC2     Percent Effect                7
39  Cc1ccc(CN2CC[C@H]3[C@@H]2CCC(=O)N3CCN2CCCC2)s1     Percent Effect             10.5
40  Cc1noc(CCCC(=O)NC(C)c2cn(-c3ccccc3)nn2)n1 (configuration not stated)     Percent Effect             6.35
41  CS(=O)(=O)N[C@@H]1CN(C(=O)c2ccccn2)[C@@H]2CCCO[C@@H]21     Percent Effect             18.4
42           CC(C)(C)c1cnc(CN2CCC[C@H]2CO)o1     Percent Effect            -1.01
43  CN1N=C(C(=O)N2CCCC(CCc3c(F)cccc3F)C2)CCC1=O (configuration not stated)     Percent Effect             1.21
44  COCCN1C(=O)[C@]2(CC[C@@H]3CN(C(=O)NCC(C)C)C[C@@H]32)N=C1C     Percent Effect              5.3
45  O=C(c1ncccn1)N1C[C@H]2CCC[C@@]2(COCC2CCOCC2)C1     Percent Effect             19.9
46  COc1ccc(-n2ccc(C(=O)NCCN3CCCCC3C)n2)cc1 (configuration not stated)     Percent Effect             1.62
47  CNc1cc(N2CCCC2CNCc2c[nH]nc2C(C)(C)C)ncn1 (configuration not stated)     Percent Effect                6

FYI, the data here is from ChEMBL document CHEMBL3988442.
